Substrate: O=C(O)C(=O)C[C@H](O)CO
MEASUREMENT DESCRIPTION: purified protein, by the assay type
Parameters: coupled assay with PpKGSADH, NADH formation at 340 nm, Michaelis-Menten fit, 25 °C, pH 7.5
CONDITIONS USED: pH 7.5; 25.0 °C

>  <PROTEIN>
CnL-KdpD (Nhis) (Cupriavidus necator H16) (protein, N-terminal His6 tag (kept), pET vector, E. coli BL21(DE3), HisTrap purified; strain given inconsistently (H16 gDNA vs N-1)) MTRTPSPTVYRGVFPVAPTVFDAQGGLDLDGQRRCIDFMIDAGSHGICILANFSEQFVLSDDERNVLMKTVLEHVDGRVPVIVTTTHFSSRLCAERSRAAQDAGAAMVMVMPPYHGATIRVPERSIYEFFATVSDAIDIPIMIQDAPVSGTTLSAPFLARMAREIGNVSYFKIEVPQAAAKLRELIELGGDAIVGPWDGEEAITLMADLEAGATGAMTGAGFPDGIRQILDAWQAGDAELAAQRYQQWLPLINYENRQGWLATSKVLMQAGGVIASDAVRHPLQPMHPATREGLLKIARRLDPLVLRWAR

>  <kcat>
12 s⁻¹

$$$$
>  <PROTEIN>
HsL-KdpD (Herbaspirillum seropedicae SmR1) (protein, N-terminal His6 tag (kept), pET vector, E. coli BL21(DE3), HisTrap purified) MSTPLYRGVFPVAPTIFDANGKLDLEGQKRAIDFMIDAGSNGLCILANFSEQFVLSDEERVQVQNTVLEHVAGRVPVIVTTTHYGSQICAERSRAAQDAGAAMVMVMPPYHGATFRVPEKQIYEFYKHVSDAIDIPIMIQDAPVAGTPLSAPFLARMAKEIEQVSYFKIETAGAASKLRDLIELGGDAVVGPWDGEEAITLIPDLDAGATGAMTGGGYPDGIRKIVDAYFAGDIEKAAELYMQWLPLINYENRQCGLSACKALMLEGGVIKSDMLRHPQPPLHPKVREGLLRVARRLDPLVLSWGR

>  <kcat>
11.4 s⁻¹

$$$$

Where do the numbers come from? From paper PMC7374468.
